Values were extracted from patent US9932335B2.

- study system: human M1 (Homo sapiens)
- Construct: expressed in transfected cells; host or cells: CHO cells
- Sequence (P11229 1-460): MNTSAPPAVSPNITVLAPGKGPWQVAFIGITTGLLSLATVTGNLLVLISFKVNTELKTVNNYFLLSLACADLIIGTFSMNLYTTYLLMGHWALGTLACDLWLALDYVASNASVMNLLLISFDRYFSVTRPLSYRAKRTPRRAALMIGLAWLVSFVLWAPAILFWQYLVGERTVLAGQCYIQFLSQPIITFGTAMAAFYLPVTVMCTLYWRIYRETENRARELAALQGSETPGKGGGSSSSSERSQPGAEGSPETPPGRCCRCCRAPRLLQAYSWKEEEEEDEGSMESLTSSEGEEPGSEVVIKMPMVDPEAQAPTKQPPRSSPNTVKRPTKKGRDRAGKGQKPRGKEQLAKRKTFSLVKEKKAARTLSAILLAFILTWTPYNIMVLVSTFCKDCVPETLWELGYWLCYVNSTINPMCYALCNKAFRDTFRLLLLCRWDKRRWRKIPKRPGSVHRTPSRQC
- protocol notes: M1 PAM assay (FLIPR intracellular calcium, CHO human M1)
- Type: cell-based
Reported EC50 by item:

- compound: "Cn1cc(-c2ccc(Cn3cc(C(=O)N[C@H]4CCOC[C@@H]4O)c4ncccc43)c(F)c2)cn1 (single isomer, unassigned) [Example 59]"
  EC50 (nM): 15.5
- compound: "CCC[C@@H](CO)NC(=O)c1cn(Cc2ccc(-c3cnn(C)c3)cc2F)c2cccnc12 [Example 23]"
  EC50 (nM): 205
- compound: "Cn1cc(-c2ccc(Cn3cc(C(=O)NCc4cccnc4)c4ncccc43)c(F)c2)cn1 [Example 64]"
  EC50 (nM): 261
- compound: "Cn1cc(-c2ccc(Cn3cc(C(=O)N[C@H]4CCOC[C@@H]4O)c4ncccc43)cn2)cn1 (racemic) [Example 57]"
  EC50 (nM): 143
- compound: "Cn1cc(-c2ccc(Cn3cc(C(=O)NC4CCCCC4)c4ncccc43)c(F)c2)cn1 [Example 28]"
  EC50 (nM): 283
- compound: "COc1ccc(Cn2cc(C(=O)N[C@H]3CCCC[C@@H]3O)c3ncccc32)cc1 [Example 47]"
  EC50 (nM): 163
- compound: "O=C(N[C@H]1CCCC[C@@H]1O)c1cn(Cc2ccc(C(F)(F)F)nc2)c2cccnc12 [Example 48]"
  EC50 (nM): 1770
- compound: "Cn1cc(-c2ccc(Cn3cc(C(=O)N[C@@H]4CCC[C@H]4O)c4ncccc43)c(F)c2)cn1 [Example 16]"
  EC50 (nM): 397
- compound: "Cc1ccc(Cn2cc(C(=O)N[C@H]3CCCC[C@@H]3O)c3ncccc32)cc1F [Example 46]"
  EC50 (nM): 257
- compound: "Cn1cc(-c2ccc(Cn3cc(C(=O)N[C@H]4CCCC[C@@]4(C)O)c4ncccc43)c(F)c2)cn1 (racemic) [Example 40]"
  EC50 (nM): 47.9
- compound: "Cc1ccc(Cn2cc(C(=O)N[C@H]3CCCC[C@@H]3O)c3ncccc32)cc1 [Example 43]"
  EC50 (nM): 207
- compound: "C[C@@H](CO)NC(=O)c1cn(Cc2ccc(-c3cnn(C)c3)cc2F)c2cccnc12 [Example 8]"
  EC50 (nM): 248
- compound: "Cn1cc(-c2ccc(Cn3cc(C(=O)N[C@H]4CCC[C@H]4O)c4ncccc43)c(F)c2)cn1 [Example 18]"
  EC50 (nM): 96
- compound: "Cn1cc(-c2ccc(Cn3cc(C(=O)N[C@H]4CCC[C@@H]4O)c4ncccc43)c(F)c2)cn1 [Example 17]"
  EC50 (nM): 64.9
- compound: "COc1ccc(Cn2cc(C(=O)N[C@H]3CCCC[C@@H]3O)c3ncccc32)cc1F [Example 44]"
  EC50 (nM): 127
- compound: "O=C(N[C@H]1CCCC[C@@H]1O)c1cn(Cc2cc(Br)ccc2F)c2cccnc12 [Example 1]"
  EC50 (nM): 545
- compound: "Cn1cc(-c2ccc(Cn3cc(C(=O)N[C@@H]4CCCC[C@H]4O)c4ncccc43)c(F)c2)cn1 [Example 3]"
  EC50 (nM): 101
- compound: "Cn1cc(-c2ccc(Cn3cc(C(=O)Nc4ncccc4CO)c4ncccc43)c(F)c2)cn1 [Example 30]"
  EC50 (nM): 82.4
- compound: "Cn1cc(-c2ccc(Cn3cc(C(=O)N[C@H]4CCCC[C@H]4O)c4ncccc43)c(F)c2)cn1 (racemic) [Example 37]"
  EC50 (nM): 162
- compound: "Cn1cc(-c2ccc(Cn3cc(C(=O)N[C@H]4CCOC[C@@H]4O)c4ncccc43)c(F)c2)cn1 (racemic) [Example 4]"
  EC50 (nM): 28.6
- compound: "Cn1ncc2cc(Cn3cc(C(=O)N[C@H]4CCCC[C@@H]4O)c4ncccc43)ccc21 [Example 52]"
  EC50 (nM): 71.5
